- Tested on: HEK-293T
- Experiment Description: Multiplex assay against HEK293T
- Assay type: toxicity, cell-based
- Condition Parameters: human, 24 h, 1 µM, compound concentration 1 uM, replicate 1
Attribute Measured: Population Tubulin-Different-Phenotype (%)
Express it in %; write the number only.

>>> print(df.to_string())
                                   compound  value
0  COc1ccc2c(c1)C(C(=O)N(Cc1ccc(N(C)C)cc1)c1ccc(C(C)C)cc1)CCC2.Cl (stereo not drawn)     13
1  O=C(O)c1cc2ccccc2c(Cc2c(O)c(C(=O)O)cc3ccccc23)c1O     16
2  C[C@H]1[C@H]2CC[C@H]3[C@@H]4CC=C5C[C@@H](N(C)C)CC[C@]5(C)[C@H]4CC[C@]23CN1C     17
3        Cc1ccc(/C(=C\CN2CCCC2)c2ccccn2)cc1     18
4  O=C(NCC(=O)N1CC[C@H](N[C@H]2CC[C@@](O)(c3ccc(-c4ncccn4)cn3)CC2)C1)c1cccc(C(F)(F)F)c1     15

Entry `CCCC(CCC)C(=O)O` ; Population Tubulin-Different-Phenotype (%) = 16

Entry CN1CCN2c3ncccc3Cc3ccccc3C2C1 (stereo not drawn) ; Population Tubulin-Different-Phenotype (%) = 18

Entry `CC(C)(C)c1ccc(S(=O)(=O)Nc2ccc(Cl)cc2C(=O)c2cc[n+]([O-])cc2)cc1` ; Population Tubulin-Different-Phenotype (%) = 15

====

Recorded Population Hoechst High Intensity Objects (%) for the following molecules
- Tested on: U2OS
- Experiment Description: Multiplex assay against U2OS
- Format: toxicity, cell-based
- Condition Parameters: human, 48 h, 1 µM, compound concentration 1 uM, replicate 2
Express it in %; write the number only.

# example entries with known answers
                                   molecule  value
0  CN1CCN2c3ncccc3Cc3ccccc3C2C1 (centres undefined) [MIRTAZAPINE]      4
1  O=C(NCC(=O)N1CC[C@H](N[C@H]2CC[C@@](O)(c3ccc(-c4ncccn4)cn3)CC2)C1)c1cccc(C(F)(F)F)c1 [PF-4136309]      3
2  CC(C)(C)c1ccc(S(=O)(=O)Nc2ccc(Cl)cc2C(=O)c2cc[n+]([O-])cc2)cc1 [VERCIRNON]      4
3  CC(=O)NCCc1c(Cc2ccccc2)[nH]c2ccccc12 [LUZINDOLE]      1
4  C[C@@H]1C[C@H]2[C@@H]3CCC4=CC(=O)C=C[C@]4(C)[C@@]3(F)[C@@H](O)C[C@]2(C)[C@@]1(O)C(=O)CO [DEXAMETHASONE]      2
5   CCCn1c(=O)c2[nH]c(C3CCCC3)nc2n(CCC)c1=O      2
6  Cc1nc2ccc(Oc3ccc(F)cc3)cc2c(=O)n1C[C@H]1CCCN(C(C)C)C1.Cl      0
7  COc1cc(C(=O)N(CCCc2ccccc2)Cc2ccc(CC(=O)O)cc2)cc(OC)c1C      6

Entry c1cc(OCCCN2CCCCC2)ccc1CN1CCCCC1 [JNJ-5207852] ; Population Hoechst High Intensity Objects (%) = 3

====

- Test system: Fibroblast
- Experiment Description: Multiplex assay against human fibroblast
- Assay type: toxicity, cell-based
- Condition Parameters: 48 h, 1 µM, compound concentration 1 uM, replicate 1
Attribute Measured: Population Membrane Permeable-Phenotype (%)
Express it in %; write the number only.

Molecule	Subject Of Test	Value Unit	Value
CC[C@H]1OC(=O)[C@H](C)[C@@H](O[C@H]2C[C@@](C)(OC)[C@@H](O)[C@H](C)O2)[C@H](C)[C@@H](O[C@@H]2O[C@H](C)C[C@H](N(C)C)[C@H]2O)[C@@]2(C)CC(C)=C(O2)[C@H](C)[C@@H](O)[C@]1(C)O	Fibroblast	%	0
C[C@H](NC(=O)c1c(C(F)F)nn(C)c1Oc1cccc(C(F)(F)F)c1)c1ccc(C(=O)O)cc1	Fibroblast	%	0
CCCn1c(=O)c2[nH]c(C3CCCC3)nc2n(CCC)c1=O	Fibroblast	%	0

Entry `CN(C)c1ccnc2sc3c(=O)n(N4CCCCCC4)cnc3c12` ; Population Membrane Permeable-Phenotype (%) = 0

Entry `CC(=O)NCCc1c(Cc2ccccc2)[nH]c2ccccc12` ; Population Membrane Permeable-Phenotype (%) = 2

Entry `O=C(O)Cc1ccccc1Nc1c(Cl)cccc1Cl` ; Population Membrane Permeable-Phenotype (%) = 4

Entry CNC[C@H](O)c1ccc(O)c(O)c1 [EPINEPHRINE] ; Population Membrane Permeable-Phenotype (%) = 0

Entry `Oc1c(CN2CCN(c3ccccn3)CC2)cc(Cl)c2cccnc12` ; Population Membrane Permeable-Phenotype (%) = 1

Entry CSc1ccccc1N1CCN(CCCCCC(=O)NC2CCCc3ccccc32)CC1.Cl (stereo not drawn) ; Population Membrane Permeable-Phenotype (%) = 2

Entry `O=C1COc2nccc(-c3ccccc3F)c2CN1Cc1cc(C(F)(F)F)cc(C(F)(F)F)c1` ; Population Membrane Permeable-Phenotype (%) = 0

Entry Cl.Clc1ccc2nsnc2c1NC1=NCCN1 [TIZANIDINE HYDROCHLORIDE] ; Population Membrane Permeable-Phenotype (%) = 2

Entry `Cc1nc2ccc(Oc3ccc(F)cc3)cc2c(=O)n1C[C@H]1CCCN(C(C)C)C1.Cl` ; Population Membrane Permeable-Phenotype (%) = 0

Entry Cc1ccc(C(C)(O)c2nc3ccccc3s2)c(C)c1 (stereo not drawn) ; Population Membrane Permeable-Phenotype (%) = 0

Entry `c1cc(OCCCN2CCCCC2)ccc1CN1CCCCC1` ; Population Membrane Permeable-Phenotype (%) = 0

Entry `C[C@@H]1C[C@H]2[C@@H]3CCC4=CC(=O)C=C[C@]4(C)[C@@]3(F)[C@@H](O)C[C@]2(C)[C@@]1(O)C(=O)CO` ; Population Membrane Permeable-Phenotype (%) = 2

Entry `O=C(O)c1cc2ccccc2c(Cc2c(O)c(C(=O)O)cc3ccccc23)c1O` ; Population Membrane Permeable-Phenotype (%) = 0

Entry `COc1cc(C(=O)N(CCCc2ccccc2)Cc2ccc(CC(=O)O)cc2)cc(OC)c1C` ; Population Membrane Permeable-Phenotype (%) = 0

Entry `CN(C)CCCc1cc(C(=O)Nc2ccc(-c3ccncc3)cc2)ccc1O.Cl.Cl` ; Population Membrane Permeable-Phenotype (%) = 0

====

Recorded Population Membrane Permeable-Phenotype (%) for the following molecules
- Test system: U2OS
- Experiment Description: Multiplex assay against U2OS
- Assay type: toxicity, cell-based
- Condition Parameters: human, 48 h, 10 µM, compound concentration 10 uM, replicate 1
Express it in %; write the number only.

# example entries with known answers
>>> print(df.to_string())
                                   molecule  subject_of_test  value
0  O=C1COc2nccc(-c3ccccc3F)c2CN1Cc1cc(C(F)(F)F)cc(C(F)(F)F)c1             U2OS     20
1  O=C(O)c1cc2ccccc2c(Cc2c(O)c(C(=O)O)cc3ccccc23)c1O             U2OS      5

Now let's try a different one.
Entry `Cc1nc2ccc(Oc3ccc(F)cc3)cc2c(=O)n1C[C@H]1CCCN(C(C)C)C1.Cl` ; Population Membrane Permeable-Phenotype (%) = 29

====

- System: Fibroblast
- Experiment Description: Multiplex assay against human fibroblast
- Type: toxicity, cell-based
- Condition Parameters: 48 h, 10 µM, compound concentration 10 uM, replicate 1
Recorded Population Normal (%) for the following compounds
Express it in %; write the number only.

Compound	Population Normal (%)
Cc1ccc(C(C)(O)c2nc3ccccc3s2)c(C)c1 (stereo unspecified)	92
CC1(COc2ccc3c(c2)ncn3-c2ccc3cccc(N4CCC(N)CC4)c3n2)COC1 [CRENOLANIB]	75
CCCn1c(=O)c2[nH]c(C3CCCC3)nc2n(CCC)c1=O	96
COc1cc(C(=O)N(CCCc2ccccc2)Cc2ccc(CC(=O)O)cc2)cc(OC)c1C	97
CN1CCN(c2nc3cc(C(F)(F)F)ccc3n3cccc23)CC1.O=C(O)/C=C\C(=O)O.O=C(O)/C=C\C(=O)O	92
COc1ccc2c(c1)C(C(=O)N(Cc1ccc(N(C)C)cc1)c1ccc(C(C)C)cc1)CCC2.Cl (stereo unspecified)	95
N[C@@]1(C(=O)O)CO[C@H]2[C@H](C(=O)O)[C@H]21 [LY-379268]	98
COc1c(C)cc(NC(=O)c2nn(Cc3ccc(F)cc3)c3c2CN(C(=O)c2ccc[nH]2)C[C@]3(C)C(N)=O)cc1C	95

Entry O=S(=O)(c1ccccc1)c1cnc2c(N3CCNCC3)cccc2c1 [INTEPIRDINE] ; Population Normal (%) = 96

Entry COc1cc(NC(=O)CCN2CCC(OC(=O)Nc3ccccc3-c3ccccc3)CC2)c(Cl)cc1CNC[C@H](O)c1ccc(O)c2[nH]c(=O)ccc12 [BATEFENTEROL] ; Population Normal (%) = 98

Entry C[C@H]1[C@H]2CC[C@H]3[C@@H]4CC=C5C[C@@H](N(C)C)CC[C@]5(C)[C@H]4CC[C@]23CN1C [CONESSINE] ; Population Normal (%) = 93

Entry Cc1ccc(/C(=C\CN2CCCC2)c2ccccn2)cc1 [TRIPROLIDINE] ; Population Normal (%) = 92

Entry C[C@H](NC(=O)c1c(C(F)F)nn(C)c1Oc1cccc(C(F)(F)F)c1)c1ccc(C(=O)O)cc1 [PALUPIPRANT] ; Population Normal (%) = 95

Entry `O=C1COc2nccc(-c3ccccc3F)c2CN1Cc1cc(C(F)(F)F)cc(C(F)(F)F)c1` ; Population Normal (%) = 97

Entry CC(=O)O[C@H]1C(=O)[C@@]2(C)[C@H]([C@H](OC(=O)c3ccccc3)[C@]3(O)C[C@H](OC(=O)[C@H](O)[C@@H](NC(=O)c4ccccc4)c4ccccc4)C(C)=C1C3(C)C)[C@]1(OC(C)=O)CO[C@@H]1C[C@@H]2O [PACLITAXEL] ; Population Normal (%) = 95

Entry CCCN1CCC[C@@H]2Cc3n[nH]cc3C[C@H]21.Cl [QUINPIROLE HYDROCHLORIDE] ; Population Normal (%) = 98

FYI, the data here is from ChEMBL document CHEMBL5058577.
